biological target: ΔF508-CFTR (Homo sapiens, UniProt P13569, DEL508-508); construct: host or cells: CFBE41o-, doxycycline-inducible; assay: CFTR cell surface levels using HRP-tagged ΔF508-CFTR expressing CFBE cells, in the presence of a co-corrector; format: cell-based; settings: HRP-tagged ΔF508-CFTR CFBE cells, in the presence of 3 μM co-corrector
Sequence (P13569 with tags, fused parts or gaps DEL508-508): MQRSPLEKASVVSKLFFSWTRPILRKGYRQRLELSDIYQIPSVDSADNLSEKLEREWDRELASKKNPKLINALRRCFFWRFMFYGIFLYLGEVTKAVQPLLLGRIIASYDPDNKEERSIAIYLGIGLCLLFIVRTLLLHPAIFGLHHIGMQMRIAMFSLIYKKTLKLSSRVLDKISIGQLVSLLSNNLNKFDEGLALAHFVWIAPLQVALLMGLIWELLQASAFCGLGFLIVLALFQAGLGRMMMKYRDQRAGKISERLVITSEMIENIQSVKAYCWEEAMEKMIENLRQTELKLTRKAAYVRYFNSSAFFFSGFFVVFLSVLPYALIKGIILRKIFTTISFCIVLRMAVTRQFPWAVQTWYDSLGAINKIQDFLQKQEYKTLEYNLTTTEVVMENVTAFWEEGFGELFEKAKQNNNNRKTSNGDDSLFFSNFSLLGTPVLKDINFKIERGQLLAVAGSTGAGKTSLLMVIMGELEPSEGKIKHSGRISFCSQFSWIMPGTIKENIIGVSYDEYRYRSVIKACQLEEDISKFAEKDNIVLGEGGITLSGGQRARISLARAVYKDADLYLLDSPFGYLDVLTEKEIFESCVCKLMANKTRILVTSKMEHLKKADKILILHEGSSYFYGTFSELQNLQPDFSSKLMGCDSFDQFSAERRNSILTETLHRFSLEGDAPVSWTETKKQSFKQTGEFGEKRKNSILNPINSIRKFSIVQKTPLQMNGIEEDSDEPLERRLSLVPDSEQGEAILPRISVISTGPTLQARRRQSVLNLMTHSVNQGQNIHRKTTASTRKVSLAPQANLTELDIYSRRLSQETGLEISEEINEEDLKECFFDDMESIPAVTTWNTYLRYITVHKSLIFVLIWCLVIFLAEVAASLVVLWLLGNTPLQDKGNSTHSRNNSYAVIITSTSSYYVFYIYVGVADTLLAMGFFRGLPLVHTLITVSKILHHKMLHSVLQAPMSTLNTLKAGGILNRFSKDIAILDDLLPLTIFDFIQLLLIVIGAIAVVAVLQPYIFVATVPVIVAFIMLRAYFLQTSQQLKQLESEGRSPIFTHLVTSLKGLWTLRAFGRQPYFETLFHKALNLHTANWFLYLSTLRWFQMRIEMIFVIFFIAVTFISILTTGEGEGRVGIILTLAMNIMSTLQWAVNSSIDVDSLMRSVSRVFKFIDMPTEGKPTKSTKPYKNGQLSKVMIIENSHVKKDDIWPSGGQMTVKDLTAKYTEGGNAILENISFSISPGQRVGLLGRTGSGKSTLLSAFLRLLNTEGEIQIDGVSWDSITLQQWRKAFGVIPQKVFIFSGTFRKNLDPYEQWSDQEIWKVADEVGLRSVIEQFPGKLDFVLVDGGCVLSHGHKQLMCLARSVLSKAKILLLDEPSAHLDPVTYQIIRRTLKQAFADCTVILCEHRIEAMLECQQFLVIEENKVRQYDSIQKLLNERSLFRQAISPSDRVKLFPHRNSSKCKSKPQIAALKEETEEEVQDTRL
Rule: % Activation below 400% gives 1 (yes). Equal to or above 400% gives 0 (no).

Observe how each entry below is paired with its result.
1) COCC1CCN(c2cc(C(=O)NS(=O)(=O)N3CCC(N4CCCC4)CC3)nc3c2c(C2CCC2)nn3-c2ccccc2)CC1 | 1 (yes)
2) CC(=O)Nc1ccc(-c2cc(C(=O)NS(C)(=O)=O)nc3c2c(C(C)C)nn3C2CCCCC2)cc1 | 0 (no)
3) CC(C)c1nn(-c2ccc(F)cc2)c2nc(C(=O)NS(=O)(=O)C3CC3)cc(N3CCC(N4CCOCC4)CC3)c12 | 0 (no)

Determine whether this compound shows % Activation lower than 400% (ties excluded): CC(C)c1nn(-c2cccc(N3CCOCC3)c2)c2nc(C(=O)NS(C)(=O)=O)cc(-c3ccc(N(C)C4CCOCC4)nc3)c12
0 (no)

Determine whether this compound shows % Activation lower than 400% (ties excluded): CC1(S(=O)(=O)NC(=O)c2cc(N3CCC(N4CCOCC4)CC3)c3c(C4CCC4)nn(-c4ccc(F)cc4)c3n2)CC1
0 (no)

Determine whether this compound shows % Activation lower than 400% (ties excluded): O=C(NS(=O)(=O)N1CC(F)(F)C1)c1cc(N2CCC(N3CCOCC3)CC2)c2c(C3CCC3)nn(-c3ccc(F)cc3)c2n1
1 (yes)

Determine whether this compound shows % Activation lower than 400% (ties excluded): CN(C)S(=O)(=O)NC(=O)c1cc(C2CCN(CCC(F)(F)F)CC2)c2c(C3CCC3)nn(-c3ccc(F)cc3)c2n1
1 (yes)

Determine whether this compound shows % Activation lower than 400% (ties excluded): CS(=O)(=O)NC(=O)c1cc(-c2ccc(N3CCC(C#N)CC3)nc2)c2c(OC3COC3)nn(-c3ccccc3)c2n1
1 (yes)
